# Test system: MILI (PIWIL2) piRISC loaded with piRNA #1 (26 nt);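 note: 1 nM active piRISC with 0.1 nM target library at 33 °C single turnover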
# assay_procedure: pre-steady-state target cleavage rate (min^-1); guide: piRNA #1 5'p-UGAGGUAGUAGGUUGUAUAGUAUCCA; MIWI and MILI are mouse PIWI proteins and EfPiwi is from a freshwater sponge; tags in brackets are library labels; higher = faster piRNA-guided slicing of the target
# condition_info: auxiliary factor: 500 nM mouse GTSF1
Task for the reader: assign each of the following sequences its reported pre-steady-state target cleavage rate.
Answers are plain numbers.

- sequence_chain: "GGAGACCAUACUAUACAACCUACUAACUCA"
  pre-steady-state target cleavage rate: 0.0993
- sequence_chain: "GGAGACCUAUGAAUACAACCUACUAUCUCA"
  pre-steady-state target cleavage rate: 0.00527
- sequence_chain: "GGAGACCUUAGUAUACAAGCUACUACCUCA"
  pre-steady-state target cleavage rate: 0.174

Give pre-steady-state target cleavage rate for each listed item.
1. GGAGACCUAUGUUUACAACCUACUAGCUCA
2. GGAGACCUAUGUAUACAAGGAACUACCUCA
3. GGAGACCUAACUAUACAACCUACUCCCUCA

output:
0.00692
0.00296
0.0941

input: Can you look up pre-steady-state target cleavage rate on MILI (PIWIL2) piRISC loaded with piRNA #1 (26 nt) for `GGAGACCAUACUAAACAACCUUCUACCUCA` ?;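 note: 1 nM active piRISC with 0.1 nM target library at 33 °C single turnover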
output: 0.00805
